Where do the numbers come from? From the RNAGym collection of RNA variant scans (doi:10.1093/molbev/msab373).

B1: Azoarcus group I ribozyme (parent)
chain: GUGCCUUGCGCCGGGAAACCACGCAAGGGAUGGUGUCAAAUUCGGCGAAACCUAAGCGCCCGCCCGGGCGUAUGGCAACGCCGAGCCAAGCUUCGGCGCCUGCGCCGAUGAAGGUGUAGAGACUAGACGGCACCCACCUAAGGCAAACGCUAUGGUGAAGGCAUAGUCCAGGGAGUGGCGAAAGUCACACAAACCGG

# Variants of: B1
# RUN_DESCRIPTION: reverse-splicing fitness (ratio to wild type); higher = more active; in vitro selection; Mg2+ level not given
Measured reverse-splicing fitness, listed per entry for reference.

For this variant ( A120G A145C C150A ), measured reverse-splicing fitness is 0.0374

reverse-splicing fitness recorded for this variant, A111U A120C A145G C150A C169U U176C , is 0.022

Measured reverse-splicing fitness, C82A A111U A120C A145U C150G : 0.00883

Quick note, reverse-splicing fitness for C82G A111U A120G A145U C150A C169U landed at 0.00711

// reverse-splicing fitness lookup, variant = C82U A111G A120U A145U C150G C169U U176G , result: 0.00213

Input C82A A111C A120U A145G C150U C169A . Output reverse-splicing fitness: 0.00691

Memo: C82U A111C A120U A145C C150G C169G U176G , reported reverse-splicing fitness: 0.00241

So, C82A A120C A145G C150A C169A U176G ? Its reverse-splicing fitness was 0.00876

Please fill in: reverse-splicing fitness reported for C82G A111G A120G C150A U176G = 0.0109

In plain terms, C82A A111G A145U C150U C169A U176G has a documented reverse-splicing fitness of 0.00665

Quick note, reverse-splicing fitness for A120U C150G C169A U176C landed at 0.00332

Per the record, C82U A111C A120C A145C C150A C169U U176A has reverse-splicing fitness of 0.0156

Form field reverse-splicing fitness, entry A111C A120C A145C C150U C169A U176C : 0.005

Lab note: C82U A111G A120G A145G C150G C169A U176A gave reverse-splicing fitness of 0.0123
